Data credit: ChEMBL document CHEMBL3616422

# Test protocol: Selectivity index, ratio of CC50 for uninfected human MT4 cells to EC50 for wild type HIV 1 3B infected in human MT4 cells
# Type: toxicity, cell-based
# Condition notes: uninfected and infected with wild type HIV-1 3B, read-out: Ratio CC50/EC50
# strict inequality: selectivity ratio < 300 yields met, everything else yields not met

As a guide, the following entries are already answered.
Molecule smiles	Label class
Cc1ccc(CNc2ccnc(Nc3ccc(C#N)cc3)n2)cc1C	not met
N#Cc1ccc(Nc2nccc(NCc3ccccc3Br)n2)cc1	not met
N#Cc1ccc(Nc2nccc(NCc3cccc(F)c3)n2)cc1	not met
N#Cc1ccc(Nc2nccc(NCc3ccc(Cl)cc3)n2)cc1	met
N#Cc1ccc(Nc2nccc(NCc3ccc(Br)cc3)n2)cc1	met

Turning now to a further compound:
Ask: Below 300 on selectivity ratio? Entry N#Cc1ccc(Nc2nccc(NCc3ccc(F)cc3F)n2)cc1
Result: met

----------
As shown below, each of these compounds has a reported EC50 value.
# System: Human immunodeficiency virus 1
# Test protocol: Antiviral activity against HIV 1 RES056 harboring reverse transcriptase K103N/Y181C double mutant infected in human MT4 cells assessed as protection against virus-induced cytopathogenicity after 5 days by MTT assay
# Assay type: functional, organism-based
# Condition notes: Human immunodeficiency virus 1, RES056, MT4, 120 h

Molecule smiles	Obs value
N#Cc1ccc(Nc2nccc(NCc3ccc(Br)cc3)n2)cc1	> 1.28 µg/mL
N#Cc1ccc(Nc2nccc(NCc3ccc(F)cc3F)n2)cc1	> 1.41 µg/mL

Ask: Requested read-out: EC50. Entry: N#Cc1ccc(Nc2nccc(NCc3cccc(Cl)c3)n2)cc1
Result: > 0.7 µg/mL

Ask: Repeat with N#Cc1ccc(Nc2nccc(NCc3ccc(C(F)(F)F)cc3)n2)cc1
Result: > 1.11 µg/mL

Ask: Repeat with Cc1ccc(CNc2ccnc(Nc3ccc(C#N)cc3)n2)cc1C
Result: > 1.21 µg/mL

Ask: Repeat with COc1cccc(CNc2ccnc(Nc3ccc(C#N)cc3)n2)c1
Result: > 0.79 µg/mL

Ask: Repeat with N#Cc1ccc(Nc2nccc(NCc3ccccc3Br)n2)cc1
Result: > 74.1 µg/mL

Ask: Repeat with N#Cc1ccc(Nc2nccc(NCc3cccc(Br)c3)n2)cc1
Result: > 0.67 µg/mL

Ask: Repeat with N#Cc1ccc(Nc2nccc(NCc3ccc(F)cc3)n2)cc1
Result: > 0.55 µg/mL

----------
As shown below, each of these compounds has a reported CC50 at 120 h value.
# Test protocol: Cytotoxicity against uninfected human MT4 cells assessed as decrease in cell viability after 5 days by MTT assay
# Format: cell-based
State just the number; it will be interpreted in µM.

Before answering, review these 5 worked examples.
Molecule smiles	Scale unit	CC50 at 120 h
COc1ccccc1CNc1ccnc(Nc2ccc(C#N)cc2)n1	µM	82.5
N#Cc1ccc(Nc2nccc(NCc3cccc(F)c3)n2)cc1	µM	1.41
Cc1ccc(CNc2ccnc(Nc3ccc(C#N)cc3)n2)cc1C	µM	3.67
COc1cccc(CNc2ccnc(Nc3ccc(C#N)cc3)n2)c1	µM	2.38
N#Cc1ccc(Nc2nccc(NCc3ccccc3Cl)n2)cc1	µM	275

Ask: Requested read-out: CC50 at 120 h. Entry: COc1ccc(CNc2ccnc(Nc3ccc(C#N)cc3)n2)cc1
Result: 2.35

Ask: Repeat with N#Cc1ccc(Nc2nccc(NCc3ccccc3)n2)cc1
Result: 1.59

Ask: Repeat with N#Cc1ccc(Nc2nccc(NCc3ccc(F)cc3F)n2)cc1
Result: 4.18

Ask: Repeat with N#Cc1ccc(Nc2nccc(NCc3cccc(C(F)(F)F)c3)n2)cc1
Result: 1.92
